Biological target: T1, human transferrin receptor (hTfR) (human, UniProt P02786 89-760)
T1 construct: Recombinant hTfR; at pH 7.4 captured on the chip by an anti-His tag antibody, at pH 6.0 immobilized on an NTA chip, so it carries a His tag; also called human TfR; TfR1
T1 sequence (P02786 89-760 limits assumed): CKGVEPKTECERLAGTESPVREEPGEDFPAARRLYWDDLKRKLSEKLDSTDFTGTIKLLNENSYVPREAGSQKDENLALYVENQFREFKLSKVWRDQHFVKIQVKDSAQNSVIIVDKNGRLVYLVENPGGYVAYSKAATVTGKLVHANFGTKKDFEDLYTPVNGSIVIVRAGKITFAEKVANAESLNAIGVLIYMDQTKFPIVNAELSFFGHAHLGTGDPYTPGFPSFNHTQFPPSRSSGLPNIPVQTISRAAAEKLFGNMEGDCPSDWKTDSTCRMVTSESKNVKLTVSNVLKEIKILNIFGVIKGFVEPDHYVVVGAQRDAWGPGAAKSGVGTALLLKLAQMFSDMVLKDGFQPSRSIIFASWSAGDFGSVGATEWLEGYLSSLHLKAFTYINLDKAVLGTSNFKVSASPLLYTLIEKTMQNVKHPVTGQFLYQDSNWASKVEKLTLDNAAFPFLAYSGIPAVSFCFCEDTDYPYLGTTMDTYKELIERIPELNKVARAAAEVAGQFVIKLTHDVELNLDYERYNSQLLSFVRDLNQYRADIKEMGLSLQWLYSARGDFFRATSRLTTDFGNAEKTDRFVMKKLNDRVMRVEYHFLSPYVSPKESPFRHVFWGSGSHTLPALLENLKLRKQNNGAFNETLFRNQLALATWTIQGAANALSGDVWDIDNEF
Test: SPR, KD at pH 6.0 over KD at pH 7.4
Bridge positions count the residues as written; N and C are the ends. Square brackets hold non-standard residues; d marks the D form. Ends that are not written are not given here. NMePhe(3-Cl) = CN[C@@H](Cc1cccc(Cl)c1)C(=O)O; 3Pal(6-NH2) = Nc1ccc(C[C@H](N)C(=O)O)cn1; NMeW = CN[C@@H](Cc1c[nH]c2ccccc12)C(=O)O; NMeY = CN[C@@H](Cc1ccc(O)cc1)C(=O)O; Nva(3-Et) = CCC(CC)[C@H](N)C(=O)O; NMeF = CN[C@@H](Cc1ccccc1)C(=O)O
Known dependency KD pH6.0/7.4 of a selection of binders
Measure: dependency KD pH6.0/7.4

• {CH2CO}-AV[NMePhe(3-Cl)]V[NMeW]NYY[Nva(3-Et)]SKRY[NMeY]C (thioether N-15; not fully specified (C-terminus)) [894_0612] = 2.33
• AVXVWNYYIIXRYXC (as printed: A-V-MeF-V-W-N-Y-Y-I-I-E(PEG8Me)-R-Y-MeY-C; linker G-KN3; cyclic (ClAc-Ala1 thioether to Cys15)) [894_3435] = 3.55
• AVXVXNYYXIKRYXC (as printed: A-V-Me3Py-V-MeW-N-Y-Y-Eva-I-K-R-Y-MeY-C; linker PEG4c; cyclic (ClAc-Ala1 thioether to Cys15)) [894_0616] = 1.22
• AVXVWNYYIIRRXXC (as printed: A-V-MeF-V-W-N-Y-Y-I-I-R-R-F3COO(PEG8Me)-MeY-C; linker G-KN3; cyclic (ClAc-Ala1 thioether to Cys15)) [894_3436] = 3.36
• AVXVXNYYIIKRYXC (as printed: A-V-Me3Py-V-MeW-N-Y-Y-I-I-K-R-Y-MeY-C; linker PEG4c; cyclic (ClAc-Ala1 thioether to Cys15)) [894_0615] = 0.92
• AVXVXNYYIIKRXXC (not fully specified; as printed: A-V-MeF3C-V-W1Me-N-Y-Y-I-I-K-R-4Py-MeY-C; linker PEG4c; cyclic (ClAc-Ala1 thioether to Cys15)) [894_0607] = 3.74
• {CH2CO}-AV[NMeF]V[NMeW]N[3Pal(6-NH2)]YI[code s]KRY[NMeY]C (thioether N-15; also: linker PEG4c attached, place not given here, Position 10 is printed as lower-case 's') [894_0619] = 4.57
